System Under Test: α-glucosidase (Saccharomyces cerevisiae, UniProt P53341)
Sequence (P53341 whole entry): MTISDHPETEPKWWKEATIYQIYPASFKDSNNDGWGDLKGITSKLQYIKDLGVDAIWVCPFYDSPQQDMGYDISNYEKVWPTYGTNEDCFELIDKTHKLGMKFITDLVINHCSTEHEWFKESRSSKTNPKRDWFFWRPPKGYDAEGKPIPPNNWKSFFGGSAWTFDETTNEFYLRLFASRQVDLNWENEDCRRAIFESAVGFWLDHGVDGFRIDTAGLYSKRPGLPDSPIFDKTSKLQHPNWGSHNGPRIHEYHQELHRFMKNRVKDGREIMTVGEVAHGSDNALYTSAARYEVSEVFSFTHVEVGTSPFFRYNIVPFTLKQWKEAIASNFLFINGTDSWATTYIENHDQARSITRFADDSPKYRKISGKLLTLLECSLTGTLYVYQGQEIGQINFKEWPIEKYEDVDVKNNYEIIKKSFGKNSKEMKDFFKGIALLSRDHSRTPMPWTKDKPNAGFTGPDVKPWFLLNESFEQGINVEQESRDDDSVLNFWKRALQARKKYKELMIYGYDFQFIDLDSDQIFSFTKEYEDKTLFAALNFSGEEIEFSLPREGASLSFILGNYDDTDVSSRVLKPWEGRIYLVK
Protocol Details: α-Glucosidase inhibition assay (p-NPG substrate)
Type: biochemical, yeast
pIC50: −log10 of the molar value.
Value Type: pIC50

molecule="Cc1cccc(NC(=O)Cn2cc(COc3ccc(/C=N/N=C/c4ccc(OCc5cn(CC(=O)Nc6cccc(C)c6)nn5)cc4)cc3)nn2)c1 [Compound 10b]" system_under_test="α-glucosidase (Saccharomyces cerevisiae, UniProt P53341)" result_number=7.21
molecule="O=C(Cn1cc(COc2ccc(/C=N/N=C/c3ccc(OCc4cn(CC(=O)Nc5ccc(Cl)cc5Cl)nn4)cc3)cc2)nn1)Nc1ccc(Cl)cc1Cl [Compound 10k]" system_under_test="α-glucosidase (Saccharomyces cerevisiae, UniProt P53341)" result_number=7.34
molecule="O=C(Cn1cc(COc2ccc(/C=N/N=C/c3ccc(OCc4cn(CC(=O)Nc5ccc(Br)cc5)nn4)cc3)cc2)nn1)Nc1ccc(Br)cc1 [Compound 10l]" system_under_test="α-glucosidase (Saccharomyces cerevisiae, UniProt P53341)" result_number=7.41
